Values compiled from patent US4983620A.

System under test: H1 histaminergic receptors (Rattus norvegicus, UniProt P31390)
Construct: in homogenates of rat brain
Sequence (P31390 whole entry): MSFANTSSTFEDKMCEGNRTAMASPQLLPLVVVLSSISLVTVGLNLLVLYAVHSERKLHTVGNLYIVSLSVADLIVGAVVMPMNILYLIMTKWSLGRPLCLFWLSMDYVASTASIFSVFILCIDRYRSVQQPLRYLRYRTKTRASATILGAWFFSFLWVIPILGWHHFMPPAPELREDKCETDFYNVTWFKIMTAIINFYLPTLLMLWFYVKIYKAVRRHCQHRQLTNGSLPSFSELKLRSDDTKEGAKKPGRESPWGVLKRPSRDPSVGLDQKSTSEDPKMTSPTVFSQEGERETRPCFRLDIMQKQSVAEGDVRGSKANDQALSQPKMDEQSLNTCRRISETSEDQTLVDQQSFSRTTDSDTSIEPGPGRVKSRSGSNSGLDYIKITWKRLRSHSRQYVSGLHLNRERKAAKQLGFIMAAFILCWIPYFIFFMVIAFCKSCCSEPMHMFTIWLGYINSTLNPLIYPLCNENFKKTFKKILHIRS
Test summary: Affinity towards H1 histaminergic receptors ([3H]Mepyramine displacement, rat brain homogenates)
Setup conditions: 2 nM [3H]Mepyramine, 25° C., 15 minutes, pH 7.5, read-out: H1-receptor binding IC50
Counter-ions that a name gives are not always drawn.
Test readout: pIC50
In plain terms, pIC50 is the concentration in mol/L turned into minus its base-10 logarithm.

>>> recorded_result("CCOCCn1c(SCCN(C)C)nc2ccccc21 [Example 3, HCl]")
8.62

Kindly review the next compound as well.
input: With H1 histaminergic receptors (Rattus norvegicus, UniProt P31390) as the test system, provide measured pIC50 for this compound: CCOCCn1c(SCC(C)N(C)C)nc2ccccc21 (centres unmarked) [Example 5]
output: 8.21
